Listed here are molecules together with their documented CL.
Test: Non-renal clearance in nephrectomized Sprague-Dawley rat at 0.1 mg/kg, iv administered as cassette dose by LC-MS/MS analysis
Format: ADME, organism-based
Conditions: in vivo
Numbered stars: 1 amine (or outer) side, 2 acyl side, 3 side chain; on linkers, the order of the positions; unused ones are H or OH. Bridge positions count the residues as written; N and C are the ends. Square brackets hold non-standard residues; d marks the D form. Peptide text beside a SMILES is read from it. * marks the point of attachment. Phe(4-F) = N[C@@H](Cc1ccc(F)cc1)C(=O)O; Agmatine = N=C(N)NCCCCN*; X1 = O=C(CCC[*:2])[*:1]
Write your answer as a measured quantity: the number, then the unit.

>>> obs_value("CC(C)[C@@H]1NC(=O)[C@H](Cc2ccc(F)cc2)NC(=O)[C@H](Cc2ccc(Cl)cc2)NC(=O)CCCSC[C@@H](C(=O)N2CSC[C@H]2C(=O)N[C@H](CCCNC(=N)N)C(=O)NCCc2cccs2)NC(=O)[C@H](CC(N)=O)NC1=O")
"100%"
>>> obs_value("CC(C)[C@@H]1NC(=O)[C@H](Cc2ccc(F)cc2)NC(=O)[C@H](Cc2ccc(O)cc2)NC(=O)CCCSC[C@@H](C(=O)N2CCC[C@H]2C(=O)NCCCCNC(=N)N)NC(=O)[C@H](CC(N)=O)NC1=O (Y[Phe(4-F)]VNCP-Agmatine; linker N-5 via X1)")
"45%"

Kindly note the recorded CL for CC(C)[C@@H]1NC(=O)[C@H](Cc2cccs2)NC(=O)[C@H](Cc2ccc(Cl)cc2)NC(=O)CCCSC[C@@H](C(=O)N2CCC[C@H]2C(=O)N[C@H](CCCNC(=N)N)C(=O)NC2CC2)NC(=O)[C@H](CC(N)=O)NC1=O , which is 67%

The measured CL associated with CCNC(=O)[C@@H](CCCNC(=N)N)NC(=O)[C@@H]1CCCN1C(=O)[C@@H]1CSSCCC(=O)N[C@@H](Cc2ccc(Cl)cc2)C(=O)N[C@@H](Cc2cccs2)C(=O)N[C@@H](C(C)C)C(=O)N[C@@H](CC(N)=O)C(=O)N1 reads 81%

----------
# reported fraction unbound at […]; entries follow
Experiment: Protein binding in rat plasma at 200 to 1000 ng/ml measured after 15 mins by UC-LC/MS/MS analysis
Format: ADME, cell-free
Details: read-out: PPB (converted)
API doc: respond with a numeric literal and nothing else, no unit.

In the examples that follow, each entry is paired with its recorded fraction unbound at […].
>>> obs_value("CCNC(=O)[C@@H](CCCNC(=N)N)NC(=O)[C@@H]1CSCN1C(=O)[C@@H]1CSCCCC(=O)N[C@@H](Cc2ccc(Cl)cc2)C(=O)N[C@@H](Cc2cccs2)C(=O)N[C@@H](C(C)C)C(=O)N[C@@H](CC(N)=O)C(=O)N1")
0.07
>>> obs_value("CCCNC(=O)[C@@H](CCCNC(=N)N)NC(=O)[C@@H]1CCCN1C(=O)[C@@H]1CSCCCC(=O)N[C@@H](Cc2ccc(Cl)cc2)C(=O)N[C@@H](Cc2cccs2)C(=O)N[C@@H](C(C)C)C(=O)N[C@@H](CC(N)=O)C(=O)N1")
0.16
>>> obs_value("CC(C)[C@@H]1NC(=O)[C@H](Cc2cccs2)NC(=O)[C@H](Cc2ccc(Cl)cc2)NC(=O)CCCSC[C@@H](C(=O)N2CCC[C@H]2C(=O)N[C@H](CCCNC(=N)N)C(=O)NCC2CC2)NC(=O)[C@H](CC(N)=O)NC1=O")
0.16

Given item CC(C)CNC(=O)[C@@H](CCCNC(=N)N)NC(=O)[C@@H]1C[C@@H](O)CN1C(=O)[C@@H]1CSCCCC(=O)N[C@@H](Cc2ccc(Cl)cc2)C(=O)N[C@@H](Cc2cccs2)C(=O)N[C@@H](C(C)C)C(=O)N[C@@H](CC(N)=O)C(=O)N1 , the value recorded as its fraction unbound at […] is 0.13

Record CCNC(=O)[C@@H](CCCNC(=N)N)NC(=O)[C@@H]1CCCN1C(=O)[C@@H]1CCSCCC(=O)N[C@@H](Cc2ccc(Cl)cc2)C(=O)N[C@@H](Cc2cccs2)C(=O)N[C@@H](C(C)C)C(=O)N[C@@H](CC(N)=O)C(=O)N1 , field fraction unbound at […]: 0.1

Input CC(C)CNC(=O)[C@@H](CCCNC(=N)N)NC(=O)[C@@H]1CCCN1C(=O)[C@@H]1CSCCCC(=O)N[C@@H](Cc2ccc(Cl)cc2)C(=O)N[C@@H](Cc2cccs2)C(=O)N[C@@H](C(C)C)C(=O)N[C@@H](CC(N)=O)C(=O)N1 . Output fraction unbound at […]: 0.14
